- Assay target: T1, Karyopherin beta2 (Kapβ2), full length, wild type (human, UniProt Q92973-2 1-890)
- T1 construct: mature; Expressed as a GST fusion from pGEX-Tev and purified; Also used here for the Kapβ2 added in the GST pull-downs; also called Transportin
- T1 sequence (looked up): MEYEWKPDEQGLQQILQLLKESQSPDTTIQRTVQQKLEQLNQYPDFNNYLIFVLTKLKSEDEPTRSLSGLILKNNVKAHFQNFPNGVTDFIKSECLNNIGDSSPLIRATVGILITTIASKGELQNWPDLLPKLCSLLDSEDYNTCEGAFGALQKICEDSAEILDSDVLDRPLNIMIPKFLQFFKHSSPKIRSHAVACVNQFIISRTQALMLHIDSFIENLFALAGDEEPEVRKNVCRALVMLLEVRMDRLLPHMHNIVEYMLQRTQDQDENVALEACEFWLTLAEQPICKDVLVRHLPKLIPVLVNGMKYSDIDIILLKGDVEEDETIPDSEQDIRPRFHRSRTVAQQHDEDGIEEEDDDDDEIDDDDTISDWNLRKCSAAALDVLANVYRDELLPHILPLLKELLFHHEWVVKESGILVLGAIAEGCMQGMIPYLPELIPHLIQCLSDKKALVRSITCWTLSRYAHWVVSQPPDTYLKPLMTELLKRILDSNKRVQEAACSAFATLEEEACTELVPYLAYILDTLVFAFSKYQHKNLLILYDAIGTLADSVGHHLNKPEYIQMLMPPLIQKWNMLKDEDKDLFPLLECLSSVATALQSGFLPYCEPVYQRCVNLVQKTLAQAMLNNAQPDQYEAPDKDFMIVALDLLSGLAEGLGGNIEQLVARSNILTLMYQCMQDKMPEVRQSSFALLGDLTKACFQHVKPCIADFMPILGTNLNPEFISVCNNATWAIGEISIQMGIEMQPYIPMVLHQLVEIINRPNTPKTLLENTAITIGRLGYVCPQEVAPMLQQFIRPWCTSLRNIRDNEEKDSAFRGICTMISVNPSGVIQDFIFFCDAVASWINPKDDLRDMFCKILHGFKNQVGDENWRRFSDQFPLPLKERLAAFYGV
- Test: ITC; MBP-hnRNP M(41-70) mutant titrated into full-length Kapβ2
pKd: −log10 of the molar value. No end group written: not given here.
Quantity: pKd

* ERPAQNEKRAAAAIKRGGNRFEPYANPTKR (other, not shown: large carriers; small tags and cut ends, also: MBP fusion partner, not in chain, also called quadruple 50KEKN53/AAAA hnRNP M mutant) [MBP-hnRNP M(41-70) K50A/E51A/K52A/N53A] | 7.65
* ERPAQNEKRKEKAIKRGGNRFEPYANPTKR (other, not shown: large carriers; small tags and cut ends, also: MBP fusion partner, not in chain) [MBP-hnRNP M(41-70) N53A] | 7.77
* ERPAQNEKRKEANIKRGGNRFEPYANPTKR (other, not shown: large carriers; small tags and cut ends, also: MBP fusion partner, not in chain) [MBP-hnRNP M(41-70) K52A] | 7.84
